# Measured On: Anti-CD28 Fab (SEQ ID NOs: 696, 697) (biotinylated (site not stated))
# Sequence (VH, as listed by the source, chain 1 of 2): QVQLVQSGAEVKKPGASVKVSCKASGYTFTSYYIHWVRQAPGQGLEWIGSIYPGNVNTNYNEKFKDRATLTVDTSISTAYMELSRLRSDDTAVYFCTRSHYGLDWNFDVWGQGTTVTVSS
# Sequence (VL, as listed by the source, chain 2 of 2): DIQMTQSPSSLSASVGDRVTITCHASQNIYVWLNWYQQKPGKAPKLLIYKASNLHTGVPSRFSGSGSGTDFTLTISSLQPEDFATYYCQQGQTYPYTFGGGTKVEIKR
# Experimental Details: phage binding ELISA; biotinylated anti-CD28 Fab on neutravidin plates, clonal phage supernatant, anti-M13 HRP detection
Observation Type: Anti-CD28 Fab signal (phage binding ELISA)

* YCQGHLPQYIAKCL (tested as crude phage supernatant) [Phage-655] | 2.09
* YCDGHMPEYMLKCL (tested as crude phage supernatant) [Phage-649] | 2.11
* YCMGHSEEYMQKCL (tested as crude phage supernatant) [Phage-646] | 2.11
* YCAGHTQEYMSKCL (tested as crude phage supernatant) [Phage-651] | 2.1
* YCDGHAPQYMLKCL (tested as crude phage supernatant) [Phage-644] | 2.12
